Data origin: PubChem BioAssay (NCI)

assay_method_text: NCI Yeast Anticancer Drug Screen. Data for the mgt1 strain (AID 153)
setup_conditions: S. cerevisiae mgt1 mutant growth inhibition; at 33.0 µM; hits give high values
This is part of a sample that, as a whole, favours compounds with a hit. Of some 79,000 tested, about 15% had one in any assay.
growth inhibition by entry:
Express your answer in %, writing the number without its unit.

molecule=CCCCCCc1cc(C(=O)OC/C(C)=N/NC(N)=O)c2ccccc2n1 quantity_unit=% observed_result=-5

Ask: Param item = `O=C1c2ccccc2C(=O)c2cc(CBr)ccc21` ; retrieve measured growth inhibition.
Reply: 21

Ask: What value of growth inhibition has been reported for the following molecule? `COc1ccc2c(c1)C(=O)c1ccccc1C2`
Reply: 7

Ask: Could you share which growth inhibition value was measured for `CC(=O)Nc1ccc(/C=C(\C#N)c2ccc(C)cc2)cc1` ?
Reply: -10

Ask: Given the entry CCCCCCCCCCCCCCC(C(=O)[O-])[n+]1ccccc1 (stereo unspecified) , report its measured growth inhibition.
Reply: -2

Ask: I am curious: what growth inhibition value has been reported for CC(CC(C)(C)[N+](C)(C)C)[N+](C)(C)C (stereo unspecified) ?
Reply: 1

====

assay_method_text: NCI Yeast Anticancer Drug Screen. Data for the rad50EPP+ strain (AID 151);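 also: 0% = growth of vehicle-treated control cultures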
setup_conditions: S. cerevisiae rad50 mutant strain, at 3.7 µM, hits give high values
This is part of a sample that, as a whole, favours compounds with a hit. Of some 79,000 tested, about 15% had one in any assay.
attribute_measured: growth inhibition (%)
Kindly provide the numeric value in % only, without the unit symbol.

Ask: Return reported growth inhibition; argument: `Clc1cccc(C(Nc2nncs2)Nc2nncs2)c1Cl`
Reply: 4

Ask: Which growth inhibition reading was recorded for the compound CC1C(NNc2ccccc2)Oc2cc3c(cc2C1c1ccccc1O)OCO3 (centres undefined) ?
Reply: 7

Ask: For the compound `CCC(=O)c1cccc2ccccc12` , what growth inhibition is on record?
Reply: 11

Ask: May I ask what growth inhibition has been recorded for `CCS(=O)(=O)c1ccc(/C=C/C=N/NC(=S)NCC(C)C)cc1` ?
Reply: 5

====

Below is a list of entries, each paired with its recorded growth inhibition value.
assay_method_text: NCI Yeast Anticancer Drug Screen. Data for the rad18 strain (AID 177)
setup_conditions: S. cerevisiae rad18 mutant growth inhibition; at 1.2 µM; hits give high values
Compounds without any hit were thinned out: in the full panel of roughly 79,000, 15% have a hit.
Could you give me the number in %? Just the number is fine.

compound=CCCCCCCCCC/C=C\C(=O)O observed_result=0
compound=O=S(=O)(CCCl)c1ccccc1Cl observed_result=-1
compound=O=[N+]([O-])c1cc2no[n+]([O-])c2cc1N1CCCCC1 observed_result=31
compound=O=[N+]([O-])c1cccc2nc3ccccc3c(NCCCN3CCOCC3)c12 observed_result=96
compound=CN(Cc1cnc2nc(N)nc(N)c2n1)c1ccc(C(=O)N[C@@H](CCC(=O)O)C(=O)O)cc1 observed_result=-2

Ask: Bench note: what growth inhibition did CCc1ncnc2cc(OCC3CO3)c(OC)cc12 (centres undefined) show?
Reply: 73

====

assay_method_text: NCI Yeast Anticancer Drug Screen. Data for the mlh1 rad18 strain (AID 175)
setup_conditions: S. cerevisiae mlh1 rad18 strain growth inhibition; at 50.0 µM; hits give high values
About 79,000 compounds went through this panel and 15% of them were active in at least one assay; those are over-represented in the sample as a whole.
attribute_measured: growth inhibition (%)
Give the quantity in %, number only.

# annotated cases, reported growth inhibition shown
compound=COC(=O)C1=C(C)NC(C)=C(C(=O)OC)C1c1cccc(/[N+]([O-])=C/c2ccccc2)c1 quantity_unit=% observed_result=66
compound="CCCCCCCCCCCCCC[N+](C)(CC(=O)[O-])Cc1ccccc1 (stereo unspecified)" quantity_unit=% observed_result=99.1

Ask: Could you share which growth inhibition value was measured for `S=C(Nc1ccc(Cl)c(Cl)c1)SCc1ccc2c(c1)OCO2` ?
Reply: 88.7

Ask: Requested read-out: growth inhibition. Entry: `C/C(=N\NC(=S)N1CCCCC1)c1cccc(C)n1`
Reply: 86.2

Ask: Tell me the measured growth inhibition of `CCOC(=O)c1cnc2c(C(F)(F)F)cccc2c1N=[N+]=[N-]` , please.
Reply: 94.8

Ask: Returns the measured growth inhibition for the input compound. Input: `COC(=O)c1ccc(NCC2=CC(=O)C=CC2=O)cc1O`
Reply: 92.2
